Source of measurements: paper PMC12415690

# Test system: B. subtilis (ATCC 6051)
# assay: Antibacterial zone of inhibition
# Assay type: cell-based, Bacillus subtilis
# settings: Gram positive; 100 μg mL^−1
readout: Zone of inhibition in mm, B. subtilis (ATCC 6051) (mm)
Give the number; mm is assumed, so skip it.

Prompt: Query for B. subtilis (ATCC 6051): what Zone of inhibition in mm, B. subtilis (ATCC 6051) does the record show for CCOC(=O)/C=C1/SC(N/N=C/c2c(-c3ccc(Cl)cc3)nc3ncccn23)=NC1=O ?
Completion: 20

Prompt: Lookup: Zone of inhibition in mm, B. subtilis (ATCC 6051) / B. subtilis (ATCC 6051) / CCOC(=O)/C=C1/SC(N/N=C/c2c(-c3ccc(C)cc3)nc3ncccn23)=NC1=O
Completion: 15

Prompt: Notebook entry, B. subtilis (ATCC 6051) assay: Zone of inhibition in mm, B. subtilis (ATCC 6051) of CCOC(=O)c1sc(N/N=C/c2c(-c3ccc(OC)cc3)nc3ncccn23)nc1C = ?
Completion: 15

Prompt: Give recorded Zone of inhibition in mm, B. subtilis (ATCC 6051) with B. subtilis (ATCC 6051) for the following molecule: CC(=O)c1sc(N/N=C/c2c(-c3ccc(Cl)cc3)nc3ncccn23)nc1C
Completion: 15

Prompt: I'm curious: which Zone of inhibition in mm, B. subtilis (ATCC 6051) was measured for CC(=O)c1sc(N/N=C/c2c(-c3ccc(C#N)cc3)nc3ncccn23)nc1C tested on B. subtilis (ATCC 6051)?
Completion: 15
